Origin of values: ChEMBL document CHEMBL1212769

experimental-details: Renal clearance in human at 750 […], po measured on day 1
Type: ADME, organism-based, Kidney
Design: route oral
experimental-setup: in vivo, read-out: CL_renal (converted)
measure: CL renal (mL/min)
// note: answer is a bare numeric in mL/min

What the record says about "COc1c(N2C[C@@H](C)C[C@H](N)C2)ccc2c(=O)c(C(=O)O)cn(C3CC3)c12" : CL renal is 133

----------
experimental-details: Clearance in human assessed as compound recovered in urine at 750 mg/kg, po measured on day 1 up to 24 hrs post dose
Assay type: ADME, organism-based
Parameters: dose 750 mg/kg, route oral
experimental-setup: read-out: amount in urine
measure: dose excreted at 24 h

What the record says about COc1c(N2C[C@@H](C)C[C@H](N)C2)ccc2c(=O)c(C(=O)O)cn(C3CC3)c12 [NEMONOXACIN] : dose excreted at 24 h is 47.1%

----------
experimental-details: AUC (0 to 24 hrs) in human at 500 mg/kg, po measured on day 16
Assay type: ADME, organism-based
Design: time < 24 hr, dose 500 mg/kg, route oral
experimental-setup: plasma
measure: AUC at 24 h (ng·h/mL)
// note: answer is a bare numeric in ng·h/mL

What the record says about "COc1c(N2C[C@@H](C)C[C@H](N)C2)ccc2c(=O)c(C(=O)O)cn(C3CC3)c12" : AUC at 24 h is 22700

----------
experimental-details: AUC (0 to last) in human at 750 mg/kg, po measured on day 1
Format: ADME, organism-based
Parameters: dose 750 mg/kg, route oral, time 0 - last
experimental-setup: plasma
measure: AUC(0-t) (ng·h/mL)
// note: answer is a bare numeric in ng·h/mL

What the record says about "COc1c(N2C[C@@H](C)C[C@H](N)C2)ccc2c(=O)c(C(=O)O)cn(C3CC3)c12" : AUC(0-t) is 46000

----------
experimental-details: AUC (0 to last) in human at 500 mg/kg, po measured on day 10
Type: ADME, organism-based
Design: time 0 - last, dose 500 mg/kg, route oral
experimental-setup: plasma
measure: AUC(0-t)

What the record says about "COc1c(N2C[C@@H](C)C[C@H](N)C2)ccc2c(=O)c(C(=O)O)cn(C3CC3)c12" : AUC(0-t) is 46700 ng·h/mL

----------
experimental-details: Clearance in human assessed as compound recovered in urine at 250 mg/kg, po measured on day 1 up to 24 hrs post dose
Type: ADME, organism-based
Design: dose 250 mg/kg, route oral
experimental-setup: read-out: amount in urine
measure: dose excreted at 24 h (%)
// note: answer is a bare numeric in %

What the record says about "COc1c(N2C[C@@H](C)C[C@H](N)C2)ccc2c(=O)c(C(=O)O)cn(C3CC3)c12" : dose excreted at 24 h is 36.8

----------
experimental-details: Renal clearance in human at 500 […], po measured on day 16
Assay type: ADME, organism-based, Kidney
Set-up: route oral
experimental-setup: in vivo, read-out: CL_renal (converted)
measure: CL renal (mL/min)
// note: answer is a bare numeric in mL/min

What the record says about COc1c(N2C[C@@H](C)C[C@H](N)C2)ccc2c(=O)c(C(=O)O)cn(C3CC3)c12 [NEMONOXACIN] : CL renal is 113

----------
experimental-details: AUC(0 to last) in human at 500 mg/kg, po measured on day 1
Type: ADME, organism-based
Design: time 0 - last, dose 500 mg/kg, route oral
experimental-setup: plasma
measure: AUC(0-t) (ng·h/mL)
// note: answer is a bare numeric in ng·h/mL

What the record says about "COc1c(N2C[C@@H](C)C[C@H](N)C2)ccc2c(=O)c(C(=O)O)cn(C3CC3)c12" : AUC(0-t) is 31600

----------
experimental-details: Oral clearance in human at 250 mg/kg measured on day 10
Type: ADME, organism-based
Design: dose 250 mg/kg
experimental-setup: in vivo
measure: CL/F (mL/min)
// note: answer is a bare numeric in mL/min

What the record says about "COc1c(N2C[C@@H](C)C[C@H](N)C2)ccc2c(=O)c(C(=O)O)cn(C3CC3)c12" : CL/F is 223

----------
experimental-details: Tmax in human at 500 […], po measured on day 10
Assay type: ADME, organism-based
Design: dose 500 mg/kg, route oral
experimental-setup: in vivo
measure: Tmax (h)
// note: answer is a bare numeric in h

What the record says about "COc1c(N2C[C@@H](C)C[C@H](N)C2)ccc2c(=O)c(C(=O)O)cn(C3CC3)c12" : Tmax is 1.31

----------
experimental-details: AUC (0 to 24 hrs) in human at 1000 […], po measured on day 1
Format: ADME, organism-based
Set-up: time < 24 hr, dose 1000 mg/kg, route oral
experimental-setup: plasma
measure: AUC(0-t) at 24 h (ng·h/mL)
// note: answer is a bare numeric in ng·h/mL

What the record says about COc1c(N2C[C@@H](C)C[C@H](N)C2)ccc2c(=O)c(C(=O)O)cn(C3CC3)c12 [NEMONOXACIN] : AUC(0-t) at 24 h is 59600

----------
experimental-details: Clearance in human assessed as compound recovered in urine at 250 mg/kg, po measured on day 10 up to 24 hrs post dose
Format: ADME, organism-based
Parameters: dose 250 mg/kg, route oral
experimental-setup: read-out: amount in urine
measure: dose excreted at 24 h (%)
// note: answer is a bare numeric in %

What the record says about "COc1c(N2C[C@@H](C)C[C@H](N)C2)ccc2c(=O)c(C(=O)O)cn(C3CC3)c12" : dose excreted at 24 h is 49.9

----------
experimental-details: Oral clearance in human at 750 […] measured on day 10
Type: ADME, organism-based
experimental-setup: in vivo
measure: CL/F

What the record says about "COc1c(N2C[C@@H](C)C[C@H](N)C2)ccc2c(=O)c(C(=O)O)cn(C3CC3)c12" : CL/F is 189 mL/min

----------
experimental-details: Tmax in human at 1000 […], po measured on day 1
Format: ADME, organism-based
Set-up: route oral
experimental-setup: in vivo
measure: Tmax (h)
// note: answer is a bare numeric in h

What the record says about COc1c(N2C[C@@H](C)C[C@H](N)C2)ccc2c(=O)c(C(=O)O)cn(C3CC3)c12 [NEMONOXACIN] : Tmax is 2

----------
experimental-details: Oral clearance in human at 75 mg/kg measured on day 10
Assay type: ADME, organism-based
Design: dose 75 mg/kg
experimental-setup: in vivo
measure: CL/F (mL/min)
// note: answer is a bare numeric in mL/min

What the record says about COc1c(N2C[C@@H](C)C[C@H](N)C2)ccc2c(=O)c(C(=O)O)cn(C3CC3)c12 [NEMONOXACIN] : CL/F is 224

----------
experimental-details: Clearance in human assessed as compound recovered in urine at 75 mg/kg, po measured on day 10 up to 24 hrs post dose
Format: ADME, organism-based
Set-up: dose 75 mg/kg, route oral
experimental-setup: read-out: amount in urine
measure: dose excreted at 24 h (%)
// note: answer is a bare numeric in %

What the record says about "COc1c(N2C[C@@H](C)C[C@H](N)C2)ccc2c(=O)c(C(=O)O)cn(C3CC3)c12" : dose excreted at 24 h is 56.7

----------
experimental-details: Oral clearance in human at 500 mg/kg measured on day 16
Assay type: ADME, organism-based
Set-up: dose 500 mg/kg
experimental-setup: in vivo
measure: CL/F (mL/min)
// note: answer is a bare numeric in mL/min

What the record says about "COc1c(N2C[C@@H](C)C[C@H](N)C2)ccc2c(=O)c(C(=O)O)cn(C3CC3)c12" : CL/F is 313

----------
experimental-details: AUC (0 to last) in human at 250 mg/kg, po measured on day 10
Format: ADME, organism-based
Set-up: time 0 - last, dose 250 mg/kg, route oral
experimental-setup: plasma
measure: AUC(0-t)
Field note: include the unit after the figure.

What the record says about COc1c(N2C[C@@H](C)C[C@H](N)C2)ccc2c(=O)c(C(=O)O)cn(C3CC3)c12 [NEMONOXACIN] : AUC(0-t) is 18700 ng·h/mL

----------
Species: Homo sapiens
experimental-details: Plasma protein binding in human
experimental-setup: read-out: PPB (converted)
measure: fraction unbound
Just the number, please.

What the record says about "COc1c(N2C[C@@H](C)C[C@H](N)C2)ccc2c(=O)c(C(=O)O)cn(C3CC3)c12" : fraction unbound is 0.84

----------
experimental-details: Tmax in human at 750 […], po measured on day 1
Format: ADME, organism-based
Set-up: route oral
experimental-setup: in vivo
measure: Tmax (h)
// note: answer is a bare numeric in h

What the record says about COc1c(N2C[C@@H](C)C[C@H](N)C2)ccc2c(=O)c(C(=O)O)cn(C3CC3)c12 [NEMONOXACIN] : Tmax is 1.5
